From: ChEMBL document CHEMBL1138294

# Tested on: LS174T
# assay_text: Cytotoxicity against human LS174T cells
# Format: functional, cell-based
measurement_label: IC50 (µM)
I only need the number, in µM, no unit after it.

IC50 of COc1cc(/C=C/C(=O)CC(=O)/C=C/c2ccc(O)c(OC)c2)ccc1O [CURCUMIN] , assay on LS174T, is 6.5
